B1: scFv; the commonest letter at each place (parent)
chain 1: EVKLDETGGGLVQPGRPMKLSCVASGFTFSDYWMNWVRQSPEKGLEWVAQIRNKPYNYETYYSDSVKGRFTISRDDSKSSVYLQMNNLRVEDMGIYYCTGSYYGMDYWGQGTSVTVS
chain 2: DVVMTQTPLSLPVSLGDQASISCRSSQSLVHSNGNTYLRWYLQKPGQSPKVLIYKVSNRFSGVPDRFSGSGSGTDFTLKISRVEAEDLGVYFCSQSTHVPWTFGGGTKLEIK

Variants of: B1
Assay: yeast surface expression (ratio to wild type); higher = more expressed
Conditions: format: scFv 4-4-20, heavy + light
Decision: yeast surface expression >= 0.7 yields rule met, all other cases yield rule not met.

[Q] Kindly determine if yeast surface expression recorded for chain 1 W33N is above or exactly 0.7.
[A] rule met

[Q] Kindly determine if yeast surface expression recorded for chain 1 G109Q is above or exactly 0.7.
[A] rule not met

[Q] Kindly determine if yeast surface expression recorded for chain 1 M34T W36L is above or exactly 0.7.
[A] rule not met

[Q] Kindly determine if yeast surface expression recorded for chain 1 D106W is above or exactly 0.7.
[A] rule not met

[Q] Kindly determine if yeast surface expression recorded for chain 1 Y102D Y107K G109H is above or exactly 0.7.
[A] rule not met

[Q] Kindly determine if yeast surface expression recorded for chain 1 S101F M105I is above or exactly 0.7.
[A] rule not met

[Q] Kindly determine if yeast surface expression recorded for chain 1 T28G N35C is above or exactly 0.7.
[A] rule not met
